Origin of values: BigSolDB 2.1

- condition parameters: in n-hexane, 315.15 K
recorded metric: solubility (mole fraction)

Consider the following illustrative entries.
Brc1ccc(NC2=NCCC3(CCCCC3)S2)cc1 :: 8.27e-05
Clc1ccc(NC2=NCCC3(CCCCC3)S2)cc1 :: 0.00017

A. CCc1ccc(NC2=NCCC3(CCCCC3)S2)cc1
B. O=C(NC1=NCCC2(CCCCC2)S1)c1ccccc1
[Q] Hey, which is lower on measured solubility (mole fraction), A or B ? Use the label to indicate which entry you chose.
[A] B
